Data origin, for the record: the NIST ThermoML archive (doi:10.1016/j.fluid.2008.07.001)

In this section, each of the molecules is paired with its reported refractive index.
Assay: refractive index (Na D-line) (dimensionless)
Details: 298.15 K; 101.33 kPa; Liquid; Standard Abbe refractometry

# MOLECULE, refractive index
records = [
    ("CC(C)CO [2-methyl-1-propanol]", 1.3938),
    ("O [water]", 1.3325),
    ("CC(=O)OCC(C)C [2-methylpropyl ethanoate]", 1.3876),
    ("CC(=O)O [acetic acid]", 1.3696),
]
